# Tested on: NCI-H322M
# assay-comment: relative viability (nuclei count vs DMSO), 5 days (fraction); higher = more cells survive
# measurement-parameters: first compound 0.006325 µM
readout-label: relative viability
// response body must contain only the number

Below, each entry is followed by its recorded relative viability result.
CCNC(=O)c1noc(-c2cc(C(C)C)c(O)cc2O)c1-c1ccc(CN2CCOCC2)cc1 [Luminespib] + CC(C)C[C@H](NC(=O)[C@H](Cc1ccccc1)NC(=O)c1cnccn1)B(O)O [Bortezomib] (partner 0.002 µM)	1.27
CCNC(=O)c1noc(-c2cc(C(C)C)c(O)cc2O)c1-c1ccc(CN2CCOCC2)cc1 [Luminespib] + C[C@@H](Oc1cc(-c2cnn(C3CCNCC3)c2)cnc1N)c1c(Cl)ccc(F)c1Cl [Crizotinib] (partner 1 µM)	0.924
CCNC(=O)c1noc(-c2cc(C(C)C)c(O)cc2O)c1-c1ccc(CN2CCOCC2)cc1 [Luminespib] + COc1cccc2cc(-c3nc([C@H]4CC[C@H](C(=O)O)CC4)n4ncnc(N)c34)[nH]c12 [OSI-027] (partner 0.5 µM)	0.503
CCNC(=O)c1noc(-c2cc(C(C)C)c(O)cc2O)c1-c1ccc(CN2CCOCC2)cc1 [Luminespib] + CS(=O)(=O)CCNCc1ccc(-c2ccc3ncnc(Nc4ccc(OCc5cccc(F)c5)c(Cl)c4)c3c2)o1 [Lapatinib] (partner 2 µM)	0.573

So, CCNC(=O)c1noc(-c2cc(C(C)C)c(O)cc2O)c1-c1ccc(CN2CCOCC2)cc1 [Luminespib] + Nc1ncn([C@H]2C[C@H](O)[C@@H](CO)O2)c(=O)n1 [Decitabine] (partner 2 µM) ? Its relative viability was 0.624

----------
# Test system: RERF-LC-KJ
# assay-comment: relative viability (nuclei count vs DMSO), 5 days (fraction); higher = more cells survive
# measurement-parameters: first compound 0.006325 µM
Mark satisfied for relative viability under 0.8, not satisfied if at or over.

Task item: Is relative viability strictly under 0.8 for the entry CCNC(=O)c1noc(-c2cc(C(C)C)c(O)cc2O)c1-c1ccc(CN2CCOCC2)cc1 [Luminespib] + Cc1nc(NC(=O)N2CCC[C@H]2C(N)=O)sc1-c1ccnc(C(C)(C)C(F)(F)F)c1 [Alpelisib] (partner 2 µM) ?
Reply: not satisfied

Task item: Please determine if CCNC(=O)c1noc(-c2cc(C(C)C)c(O)cc2O)c1-c1ccc(CN2CCOCC2)cc1 [Luminespib] + NC(=O)Nc1cc(-c2cccc(F)c2)sc1C(=O)N[C@H]1CCCNC1 [AZD7762] (partner 0.2 µM) is below 0.8 in terms of relative viability.
Reply: not satisfied

Task item: Item CCNC(=O)c1noc(-c2cc(C(C)C)c(O)cc2O)c1-c1ccc(CN2CCOCC2)cc1 [Luminespib] + O=C(c1cc(Cc2n[nH]c(=O)c3ccccc23)ccc1F)N1CCN(C(=O)C2CC2)CC1 [Olaparib] (partner 8 µM) : relative viability beneath 0.8, strictly?
Reply: not satisfied

----------
# System: NCI-H2228
# assay-comment: relative viability (nuclei count vs DMSO), 5 days (fraction); higher = more cells survive
# measurement-parameters: first compound 20 µM
readout-label: relative viability
Format: numeric value only, no unit, no commentary.

Previously resolved entries follow.
Cc1csc(=NC2CCCCC2)n1/N=C/c1ccc(O)c(O)c1O [MIM1] + COc1cccc2cc(-c3nc([C@H]4CC[C@H](C(=O)O)CC4)n4ncnc(N)c34)[nH]c12 [OSI-027] (partner 0.5 µM)	0.137
Cc1csc(=NC2CCCCC2)n1/N=C/c1ccc(O)c(O)c1O [MIM1] + Cc1nc(Nc2ncc(C(=O)Nc3c(C)cccc3Cl)s2)cc(N2CCN(CCO)CC2)n1 [Dasatinib] (partner 0.075 µM)	0.0988

Record Cc1csc(=NC2CCCCC2)n1/N=C/c1ccc(O)c(O)c1O [MIM1] + Cc1cc(Nc2cc(N3CCN(C)CC3)nc(Sc3ccc(NC(=O)C4CC4)cc3)n2)n[nH]1 [Tozasertib] (partner 0.1 µM) / NCI-H2228, relative viability recorded as 0.123

----------
The entries below are paired with their reported relative viability.
# System: EPLC-272H
# assay-comment: relative viability (nuclei count vs DMSO), 5 days (fraction); higher = more cells survive
# measurement-parameters: first compound 0.06325 µM
Enter the number alone.

CCNC(=O)c1noc(-c2cc(C(C)C)c(O)cc2O)c1-c1ccc(CN2CCOCC2)cc1 [Luminespib] + O=C(c1cc(Cc2n[nH]c(=O)c3ccccc23)ccc1F)N1CCN(C(=O)C2CC2)CC1 [Olaparib] (partner 8 µM)	0.0637
CCNC(=O)c1noc(-c2cc(C(C)C)c(O)cc2O)c1-c1ccc(CN2CCOCC2)cc1 [Luminespib] + Cc1cc(Nc2cc(N3CCN(C)CC3)nc(Sc3ccc(NC(=O)C4CC4)cc3)n2)n[nH]1 [Tozasertib] (partner 0.1 µM)	0.399
CCNC(=O)c1noc(-c2cc(C(C)C)c(O)cc2O)c1-c1ccc(CN2CCOCC2)cc1 [Luminespib] + C[C@]1(O)C[C@@H](c2nc(-c3ccc4ccc(-c5ccccc5)nc4c3)c3c(N)nccn32)C1 [Linsitinib] (partner 1 µM)	1.11
CCNC(=O)c1noc(-c2cc(C(C)C)c(O)cc2O)c1-c1ccc(CN2CCOCC2)cc1 [Luminespib] + CS(=O)(=O)N1CCN(Cc2cc3nc(-c4cccc5[nH]ncc45)nc(N4CCOCC4)c3s2)CC1 [Pictilisib] (partner 1 µM)	0.197

In the following, a different compound is considered.
Tested on EPLC-272H, the item CCNC(=O)c1noc(-c2cc(C(C)C)c(O)cc2O)c1-c1ccc(CN2CCOCC2)cc1 [Luminespib] + CC1(C)CCC(c2ccc(Cl)cc2)=C(CN2CCN(c3ccc(C(=O)NS(=O)(=O)c4ccc(N[C@H](CCN5CCOCC5)CSc5ccccc5)c(S(=O)(=O)C(F)(F)F)c4)cc3)CC2)C1 [Navitoclax] (partner 0.5 µM) showed relative viability equal to 1.11

----------
The molecules listed here are annotated with their relative viability.
# System: HCC-366
# assay-comment: relative viability (nuclei count vs DMSO), 5 days (fraction); higher = more cells survive
# measurement-parameters: first compound 0.1 µM
Field format: numeric only.

Please review the following examples before continuing.
Cc1cn(-c2cc(NC(=O)c3ccc(C)c(Nc4nccc(-c5cccnc5)n4)c3)cc(C(F)(F)F)c2)cn1 [Nilotinib] + C[C@@H](Oc1cc(-c2cnn(C3CCNCC3)c2)cnc1N)c1c(Cl)ccc(F)c1Cl [Crizotinib] (partner 1 µM)	0.609
Cc1cn(-c2cc(NC(=O)c3ccc(C)c(Nc4nccc(-c5cccnc5)n4)c3)cc(C(F)(F)F)c2)cn1 [Nilotinib] + CC1(C)CCC(c2ccc(Cl)cc2)=C(CN2CCN(c3ccc(C(=O)NS(=O)(=O)c4ccc(N[C@H](CCN5CCOCC5)CSc5ccccc5)c(S(=O)(=O)C(F)(F)F)c4)cc3)CC2)C1 [Navitoclax] (partner 0.5 µM)	0.744
Cc1cn(-c2cc(NC(=O)c3ccc(C)c(Nc4nccc(-c5cccnc5)n4)c3)cc(C(F)(F)F)c2)cn1 [Nilotinib] + COc1cc2c(Oc3ccc(NC(=O)C4(C(=O)Nc5ccc(F)cc5)CC4)cc3F)ccnc2cc1OCCCN1CCOCC1 [Foretinib] (partner 0.25 µM)	0.953

The record that follows has no relative viability shown yet.
Measured on HCC-366, Cc1cn(-c2cc(NC(=O)c3ccc(C)c(Nc4nccc(-c5cccnc5)n4)c3)cc(C(F)(F)F)c2)cn1 [Nilotinib] + Cc1nc(Nc2ncc(C(=O)Nc3c(C)cccc3Cl)s2)cc(N2CCN(CCO)CC2)n1 [Dasatinib] (partner 0.075 µM) has a documented relative viability of 0.181

----------
# Test system: 201T
# assay-comment: relative viability (nuclei count vs DMSO), 5 days (fraction); higher = more cells survive
# measurement-parameters: first compound 0.02 µM
readout-label: relative viability
Lab note: write the figure by itself, no unit.

Below: 6 compounds and their reported relative viability.
CN1CCN(CCOc2cc(OC3CCOCC3)c3c(Nc4c(Cl)ccc5c4OCO5)ncnc3c2)CC1 [Saracatinib] + Cc1nc(Nc2ncc(C(=O)Nc3c(C)cccc3Cl)s2)cc(N2CCN(CCO)CC2)n1 [Dasatinib] (partner 0.075 µM)	0.602
CCNC(=O)c1noc(-c2cc(C(C)C)c(O)cc2O)c1-c1ccc(CN2CCOCC2)cc1 [Luminespib] + O=C(c1cc(Cc2n[nH]c(=O)c3ccccc23)ccc1F)N1CCN(C(=O)C2CC2)CC1 [Olaparib] (partner 8 µM)	0.87
CCNC(=O)c1noc(-c2cc(C(C)C)c(O)cc2O)c1-c1ccc(CN2CCOCC2)cc1 [Luminespib] + COc1cc2c(Oc3ccc(NC(=O)C4(C(=O)Nc5ccc(F)cc5)CC4)cc3F)ccnc2cc1OCCCN1CCOCC1 [Foretinib] (partner 0.25 µM)	1.08
CCNC(=O)c1noc(-c2cc(C(C)C)c(O)cc2O)c1-c1ccc(CN2CCOCC2)cc1 [Luminespib] + COc1cccc2cc(-c3nc([C@H]4CC[C@H](C(=O)O)CC4)n4ncnc(N)c34)[nH]c12 [OSI-027] (partner 0.5 µM)	0.668
CCNC(=O)c1noc(-c2cc(C(C)C)c(O)cc2O)c1-c1ccc(CN2CCOCC2)cc1 [Luminespib] + CC(=O)Nc1cccc(-n2c(=O)n(C3CC3)c(=O)c3c(Nc4ccc(I)cc4F)n(C)c(=O)c(C)c32)c1 [Trametinib] (partner 0.02 µM)	0.675
CCNC(=O)c1noc(-c2cc(C(C)C)c(O)cc2O)c1-c1ccc(CN2CCOCC2)cc1 [Luminespib] + CS(=O)(=O)CCNCc1ccc(-c2ccc3ncnc(Nc4ccc(OCc5cccc(F)c5)c(Cl)c4)c3c2)o1 [Lapatinib] (partner 2 µM)	0.878

The measured relative viability that CN1CCN(CCOc2cc(OC3CCOCC3)c3c(Nc4c(Cl)ccc5c4OCO5)ncnc3c2)CC1 [Saracatinib] + Cc1cc(Nc2cc(N3CCN(C)CC3)nc(Sc3ccc(NC(=O)C4CC4)cc3)n2)n[nH]1 [Tozasertib] (partner 0.1 µM) showed for 201T is 0.977

Measured relative viability (201T), entry CCNC(=O)c1noc(-c2cc(C(C)C)c(O)cc2O)c1-c1ccc(CN2CCOCC2)cc1 [Luminespib] + Cc1cc(Nc2cc(N3CCN(C)CC3)nc(Sc3ccc(NC(=O)C4CC4)cc3)n2)n[nH]1 [Tozasertib] (partner 0.1 µM) : 0.665

Known value: 201T relative viability of the compound CCNC(=O)c1noc(-c2cc(C(C)C)c(O)cc2O)c1-c1ccc(CN2CCOCC2)cc1 [Luminespib] + CC(=O)c1c(C)c2cnc(Nc3ccc(N4CCNCC4)cn3)nc2n(C2CCCC2)c1=O [Palbociclib] (partner 0.5 µM) equals 0.309
